Target: MC1-R
Experiment: Competitive inhibition binding assay using [I125]-NDP-α-MSH, MC1-R
Details: membranes of B-16 mouse melanoma cells (endogenous MC1-R), in some instances HEK-293 hMC1-R
Positions of bridges follow the written chain, without caps; N, C: chain ends. Non-standard residues stand in square brackets, D forms with d. Residues, ends and D or L forms follow the SMILES beside them. dPhe(4-CN) = N#Cc1ccc(C[C@@H](N)C(=O)O)cc1; Orn = NCCC[C@H](N)C(=O)O
reportedEndpoint: pKi
Quick note: pKi values are minus log10 of concentrations in mol/L.

Record excerpt, results attached:
# molecule, experimentalSystem, reported
data = [
    ("CC(=O)N[C@@H](CCCNC(=N)N)C(=O)N[C@H]1CCC(=O)NCCC[C@@H](C(=O)O)NC(=O)[C@H](Cc2c[nH]c3ccccc23)NC(=O)[C@H](CCCNC(=N)N)NC(=O)[C@@H](Cc2ccc(C#N)cc2)NC(=O)[C@H](CC(=O)O)NC1=O [Example 107] (Ac-RED[dPhe(4-CN)]RW[Orn]-OH; lactam 2-7)", "MC1-R", 5.00),
    ("CC(=O)N[C@@H](CCCNC(=N)N)C(=O)N[C@H]1CCC(=O)NCCC[C@@H](C(N)=O)NC(=O)[C@H](Cc2c[nH]c3ccccc23)NC(=O)[C@H](CCCNC(=N)N)NC(=O)[C@@H](Cc2ccc(C#N)cc2)NC(=O)[C@H](CCC(=O)O)NC1=O [Example 108] (Ac-REE[dPhe(4-CN)]RW[Orn]-NH2; lactam 2-7)", "MC1-R", 5.00),
]

Here's the next entry for you.
Find the measured pKi: item CC(=O)N[C@@H](CCCNC(=N)N)C(=O)N[C@H]1CCC(=O)NCCC[C@@H](C(N)=O)NC(=O)[C@H](Cc2c[nH]c3ccccc23)NC(=O)[C@H](CCCNC(=N)N)NC(=O)[C@@H](Cc2ccc(C#N)cc2)NC(=O)[C@H](CC(=O)O)NC1=O [Example 106] (Ac-RED[dPhe(4-CN)]RW[Orn]-NH2; lactam 2-7) , target or system MC1-R.
5.00

* * *

Target: hMC4-R (Homo sapiens (Human), UniProt P32245)
Sequence (P32245 whole entry): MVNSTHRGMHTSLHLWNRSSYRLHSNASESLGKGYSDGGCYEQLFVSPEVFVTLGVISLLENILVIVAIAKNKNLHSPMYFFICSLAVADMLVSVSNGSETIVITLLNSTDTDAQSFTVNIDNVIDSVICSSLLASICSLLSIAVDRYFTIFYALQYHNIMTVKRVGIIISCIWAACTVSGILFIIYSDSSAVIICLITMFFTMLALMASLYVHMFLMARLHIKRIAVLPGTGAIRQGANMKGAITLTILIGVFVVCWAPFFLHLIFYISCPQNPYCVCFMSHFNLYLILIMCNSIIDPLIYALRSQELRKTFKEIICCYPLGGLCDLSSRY
Test: High and low density hMC4-R functional assay (cAMP, HEK293-T-REx-MC4-R cells)
Type: cell-based
Conditions: 10 ng/mL Doxycycline (high density hMC4-R system)
Quick list: pEC50 per entry.
Reminder that pEC50 means the negative base-10 logarithm of the concentration expressed in mol/L.

Please review the following examples before continuing.
# smilesStructure, reportedEndpoint, reported
rows = [
    ("CC(=O)N[C@@H](CCCNC(=N)N)C(=O)N[C@H]1CCC(=O)NCCC[C@@H](C(N)=O)NC(=O)[C@H](Cc2c[nH]c3ccccc23)NC(=O)[C@H](CCCNC(=N)N)NC(=O)[C@@H](Cc2ccccc2F)NC(=O)[C@H](CCC(N)=O)NC1=O", "pEC50", 10.00),
    ("CC(=O)N[C@@H](CCCNC(=N)N)C(=O)N[C@H]1CCC(=O)NCCC[C@@H](C(N)=O)NC(=O)[C@H](Cc2c[nH]c3ccccc23)NC(=O)[C@H](CCCNC(=N)N)NC(=O)[C@@H](Cc2ccc(C#N)cc2)NC(=O)[C@@H]2C[C@@H](O)CN2C1=O", "pEC50", 9.30),
    ("CC(=O)N[C@@H](CCCNC(=N)N)C(=O)N[C@H]1CCCNC(=O)CC[C@@H](C(N)=O)NC(=O)[C@H](Cc2c[nH]c3ccccc23)NC(=O)[C@H](CCCNC(=N)N)NC(=O)[C@@H](Cc2ccccc2C(F)(F)F)NC(=O)[C@H](CCC(N)=O)NC1=O", "pEC50", 9.77),
    ("CC(=O)N[C@@H](CCCNC(=N)N)C(=O)N[C@H]1CCC(=O)NCCC[C@@H](C(N)=O)NC(=O)[C@H](Cc2c[nH]c3ccccc23)NC(=O)[C@H](CCCNC(=N)N)NC(=O)[C@@H](Cc2ccccc2C(F)(F)F)NC(=O)[C@H](CCN)NC1=O", "pEC50", 10.22),
    ("CC(=O)N[C@@H](CCCNC(=N)N)C(=O)N[C@H]1CCC(=O)NCCC[C@@H](C(N)=O)NC(=O)[C@H](Cc2c[nH]c3ccccc23)NC(=O)[C@H](CCCNC(=N)N)NC(=O)[C@@H](Cc2ccccc2F)NC(=O)[C@H](CC(N)=O)NC1=O", "pEC50", 10.05),
    ("CC(=O)N[C@@H](CCCNC(=N)N)C(=O)N[C@H]1CCC(=O)NCCC[C@@H](C(N)=O)NC(=O)[C@H](Cc2c[nH]c3ccccc23)NC(=O)[C@H](CCCNC(=N)N)NC(=O)[C@@H](Cc2ccccc2F)NC(=O)[C@@H]2CCCN2C1=O", "pEC50", 9.58),
]

Find the recorded pEC50 belonging to CC(=O)N[C@@H](CCCNC(=N)N)C(=O)N[C@H]1CCC(=O)NCCC[C@@H](C(N)=O)NC(=O)[C@H](Cc2c[nH]c3ccccc23)NC(=O)[C@H](CCCNC(=N)N)NC(=O)[C@@H](Cc2ccc(C(C)(C)C)cc2)NC(=O)[C@H](CCN)NC1=O and report it.
7.60

pEC50 for CC(=O)N[C@@H](CCCNC(=N)N)C(=O)N[C@H]1CCC(=O)NCCC[C@@H](C(N)=O)NC(=O)[C@H](Cc2c[nH]c3ccccc23)NC(=O)[C@H](CCCNC(=N)N)NC(=O)[C@@H](Cc2cccc(C(F)(F)F)c2)NC(=O)[C@H](CCN)NC1=O ?
9.40

What measured pEC50 goes with CC(=O)N[C@H](CCCNC(=N)N)C(=O)N[C@H]1CC(=O)NCCCC[C@@H](C(N)=O)NC(=O)[C@H](Cc2c[nH]c3ccccc23)NC(=O)[C@H](CCCNC(=N)N)NC(=O)[C@@H](Cc2ccc(F)cc2)NC(=O)[C@H](CCC(N)=O)NC1=O ?
10.12

Name the recorded pEC50 for CC(=O)N[C@@H](CCCNC(=N)N)C(=O)N[C@H]1CCC(=O)NCCC[C@@H](C(N)=O)NC(=O)[C@H](Cc2c[nH]c3ccccc23)NC(=O)[C@H](CCCNC(=N)N)NC(=O)[C@@H](Cc2ccc(C#N)cc2)NC(=O)[C@H](C(C)C)NC1=O .
9.30
